Item-by-item account of melting point

RECORD SMILES: Cc1cc(N)c2cc(NC(=O)c3ccccc3COc3cccnc3)ccc2n1.Cl
melting point: 207 °C

RECORD SMILES: Cc1ccc(CCc2ccccc2C(=O)Nc2ccc3nc(C)cc(N)c3c2)cc1.Cl
melting point: > 300 °C

RECORD SMILES: Cc1cc(N)c2cc(NC(=O)c3ccccc3CCCCCCOc3ccccc3)ccc2n1.Cl
melting point: 210 °C

RECORD SMILES: Cc1cc(N)c2cc(NC(=O)c3ccccc3COc3cccc(C#N)c3)ccc2n1.Cl
melting point: 195 °C

RECORD SMILES: Cc1cc(N)c2cc(NC(=O)c3ccccc3COc3cccc([N+](=O)[O-])c3)ccc2n1.Cl
melting point: 245 °C

RECORD SMILES: Cc1cc(N)c2cc(NC(=O)[C@H]3CCCN3CCOc3ccc(Cl)cc3)ccc2n1
melting point: 253 °C

RECORD SMILES: Cc1cc(N)c2cc(NC(=O)c3ccccc3COc3ccc(C(C)(C)C)cc3)ccc2n1.Cl
melting point: 268 °C

RECORD SMILES: Cc1cc(N)c2cc(NC(=O)c3ccccc3OCc3ccccc3)ccc2n1.Cl
melting point: 240 °C

RECORD SMILES: Cc1cc(N)c2cc(NC(=O)c3ccccc3COc3ccc(Cl)cc3)ccc2n1.Cl
melting point: 245 °C

RECORD SMILES: Cc1cc(N)c2cc(NC(=O)c3ccccc3COc3ccc([N+](=O)[O-])cc3)ccc2n1.Cl
melting point: 238 °C

RECORD SMILES: Cc1cc(N)c2cc(NC(=O)c3ccccc3COc3cccc(F)c3)ccc2n1.Cl
melting point: 255 °C

RECORD SMILES: COc1cccc(OCc2ccccc2C(=O)Nc2ccc3nc(C)cc(N)c3c2)c1OC.Cl
melting point: 196 °C

RECORD SMILES: COc1ccc(CCc2ccccc2C(=O)Nc2ccc3nc(C)cc(N)c3c2)cc1.Cl
melting point: 285 °C

RECORD SMILES: CNc1cc(C)nc2ccc(NC(=O)c3ccccc3COc3ccccc3)cc12.Cl
melting point: 284 °C

RECORD SMILES: Cc1cc(N)c2cc(NC(=O)c3ccccc3COc3ccc(C(=O)O)cc3)ccc2n1.Cl
melting point: 225 °C

RECORD SMILES: Cc1cc(N)c2cc(NC(=O)c3ccccc3CSc3ccc(Cl)cc3)ccc2n1.Cl
melting point: 216 °C

RECORD SMILES: Cl.Nc1ccnc2ccc(NC(=O)c3ccccc3COc3ccc(Cl)cc3)cc12
melting point: 231 °C

RECORD SMILES: Cc1cc(N)c2cc(NC(=O)c3ccccc3CN(C)c3ccc(Cl)cc3)ccc2n1
melting point: 214 °C

RECORD SMILES: CCc1ccc(OCc2ccccc2C(=O)Nc2ccc3nccc(N)c3c2)cc1.Cl
melting point: 219 °C

RECORD SMILES: CSc1nc2ccc(NC(=O)c3ccccc3COc3ccccc3)cc2[nH]1.Cl
melting point: 191 °C

RECORD SMILES: Cc1cc(N)c2cc(NC(=O)c3ccccc3COc3ccc(C(F)(F)F)cc3)ccc2n1.Cl
melting point: 220 °C

RECORD SMILES: Cc1cc(N)c2cc(NC(=O)c3ccccc3COc3ccc(Cl)c(Cl)c3)ccc2n1.Cl
melting point: 223 °C

----------
The compounds below have reported Ki for μ receptor (Rattus norvegicus, UniProt P33535).
RESULT TYPE: Ki (nM)

COMPOUND: Cc1cc(N)c2cc(NC(=O)c3ccccc3COc3ccc(C(F)(F)F)cc3)ccc2n1.Cl [Example 18, hydrochloride]
TESTED ON: μ receptor (Rattus norvegicus, UniProt P33535)
Sequence (P33535 whole entry): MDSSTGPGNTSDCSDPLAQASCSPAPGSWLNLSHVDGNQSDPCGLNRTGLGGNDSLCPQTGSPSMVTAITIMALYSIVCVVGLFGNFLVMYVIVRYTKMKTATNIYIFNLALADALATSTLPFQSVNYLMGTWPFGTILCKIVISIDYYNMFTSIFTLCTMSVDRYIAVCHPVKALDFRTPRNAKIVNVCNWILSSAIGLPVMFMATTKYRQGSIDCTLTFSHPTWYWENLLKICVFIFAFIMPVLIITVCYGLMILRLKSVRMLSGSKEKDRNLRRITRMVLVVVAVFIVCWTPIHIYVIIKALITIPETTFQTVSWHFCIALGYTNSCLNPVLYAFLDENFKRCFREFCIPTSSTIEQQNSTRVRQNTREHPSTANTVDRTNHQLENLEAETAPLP
RESULT TYPE: Ki
UNIT ANNOTATION: nM
RESULT: 393
--
COMPOUND: Cc1cc(N)c2cc(NC(=O)c3ccccc3COc3ccc(Cl)cc3)ccc2n1.Cl [Example 11, hydrochloride]
TESTED ON: μ receptor (Rattus norvegicus, UniProt P33535)
RESULT TYPE: Ki
UNIT ANNOTATION: nM
RESULT: 424
--
COMPOUND: Cc1ccc(OCc2ccccc2C(=O)Nc2ccc3nc(C)cc(N)c3c2)cc1.Cl [Example 17, hydrochloride]
TESTED ON: μ receptor (Rattus norvegicus, UniProt P33535)
RESULT TYPE: Ki
UNIT ANNOTATION: nM
RESULT: 385
--
COMPOUND: Cc1cc(N)c2cc(NC(=O)c3ccccc3COc3ccccc3Cl)ccc2n1.Cl [Example 27, hydrochloride]
TESTED ON: μ receptor (Rattus norvegicus, UniProt P33535)
RESULT TYPE: Ki
UNIT ANNOTATION: nM
RESULT: 414
--
COMPOUND: Cc1cc(N)c2cc(NC(=O)c3ccccc3COc3ccc([N+](=O)[O-])cc3)ccc2n1 [Example 7]
TESTED ON: μ receptor (Rattus norvegicus, UniProt P33535)
RESULT TYPE: Ki
UNIT ANNOTATION: nM
RESULT: 346
